system name: T1, human B7-H7 expressed on the cell surface (human, UniProt Q9UM44 23-414)
T1 sequence: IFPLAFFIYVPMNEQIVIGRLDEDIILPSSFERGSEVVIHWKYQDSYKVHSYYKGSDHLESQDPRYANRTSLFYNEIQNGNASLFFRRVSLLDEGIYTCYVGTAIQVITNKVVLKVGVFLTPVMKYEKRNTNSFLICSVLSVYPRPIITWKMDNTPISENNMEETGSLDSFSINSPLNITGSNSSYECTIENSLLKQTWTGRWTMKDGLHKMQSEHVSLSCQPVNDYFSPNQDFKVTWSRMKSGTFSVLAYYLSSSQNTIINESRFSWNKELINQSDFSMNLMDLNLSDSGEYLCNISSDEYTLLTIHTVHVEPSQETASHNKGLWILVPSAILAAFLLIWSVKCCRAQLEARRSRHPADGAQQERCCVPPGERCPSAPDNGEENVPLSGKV
protocol: cell-based or functional assay
Entries and their Induction of NK-92 cytotoxicity Relative efficacy values follow.
Please reply with the bare figure in % and do not write the unit itself.

binder	reported result
anti-B7-H7 antibody 5C9 (antibody, V domains shown, Mouse hybridoma antibody) VH: QVQLQQSGAELAKPGASVKMSCKASGYTFTSFWIHWIKQRPGQGLEWIGYIIPNTDYTEYNQKFKDKATFTADKSSSTAYMQLSSLTSEDSAVFYCARGLRGAYYFDYWGQGTTLTVSS VL: DIVLTQSPASLAVSLGLRATISCRSSQSVSTSTNGYMHWYQQKPGQPPKLLIMYASNLESGVPARFSGSGSGTDFTLNIHPVDEEDTATYYCQHSWVLPYTFGGGTKLEIK	155
anti-B7-H7 antibody 2F10 (antibody, V domains shown, Mouse hybridoma antibody) VH: EIQLQQTGPELVKPGASLRISCKASGYSFTDYIIVWVKQNQGKNLDWIEKINPYYGTTTYNLRFEDKATLTVNKSSTTAYMQLNSLTSEDSAVYYCARWDYVSTLFAMDYWGQGTSITVSS VL: DIVMTQSHKVMSTSVGDRVSIICKASQDVGTAVAWYQQKPGQSPKLLIYWASTRHTGVPDRFTGSGSGTDFILTITNVQSENLANYFCQQYKRYYTFGGGTKLEIK	146
anti-B7-H7 antibody 16D5 (antibody, V domains shown, Mouse hybridoma antibody) VH: QVQLQQSAAELARPGASVKMSCKASGYTFTTYTMHWVKQRPGQGLEWIGYINPSRGYSDYSQKFQGKSTLTTDKSSNTAYIQLTSLTSEDSAVYFCARGGYDFDYWGQGTTLTVSS VL: DIVMTQSHKFMSTSVGDRVSITCKASQDVGTAVAWYQQKPGQSPKLLLYWASTRHTGVPDRFTGSGSGTDYTLTISSVQAEDLALYHCQQHFITPYTFGGGTKLEIK	135
anti-B7-H7 antibody 5B10 (antibody, V domains shown, Mouse hybridoma antibody) VH: EVQLQQSGPELEKPGASVKISCKASGYSFTGYNMNWVKQSNGKSLEWIGNIDPYSGGSTYNQKFKGKATLTVDKSSSTASLQLKSLTSEDSSVYYCARSFYDAPYLTYWGQGTLVTVSA VL: DIQMTQSPTSLSASVGETVTITCRASENIFIYLAWYQQKQGKSPQLLVFNAKTLAEGVPSRFSGSGSGTQFSLKINSLRPEDFGTYYCQHHYGTPPTFGGGTKLEV	148

Query binder follows.
Induction of NK-92 cytotoxicity Relative efficacy for anti-B7-H7 antibody 3H6 (antibody, V domains shown, Mouse hybridoma antibody) VH: EVQLQQSGPELVKPGASVKISCKTSGYTFTEYTMHWVKQSHGKSLEWIGGINPNNGGAPYNQKFKGKATLTVDKSSSTAYMELRSLTSEDSAVYYCARGGYYFDYWGQGTTLTVSS VL: DIVMTQSHKFMSTSVGDRVSITCKASQDVSTAVAWYQQKSGQSPKLLIYWASTRHTGVPDRFTGSGSGTDYTLTISSVQAEDLALYYCQQHYDTPFTFGGGTKLEIK ?
105
